- TESTED_TARGET: T1, B-cat-Halo (beta-catenin HaloTag construct expressed in HEK293 cells) (UniProt P35222 1-781)
- T1 sequence (looked up): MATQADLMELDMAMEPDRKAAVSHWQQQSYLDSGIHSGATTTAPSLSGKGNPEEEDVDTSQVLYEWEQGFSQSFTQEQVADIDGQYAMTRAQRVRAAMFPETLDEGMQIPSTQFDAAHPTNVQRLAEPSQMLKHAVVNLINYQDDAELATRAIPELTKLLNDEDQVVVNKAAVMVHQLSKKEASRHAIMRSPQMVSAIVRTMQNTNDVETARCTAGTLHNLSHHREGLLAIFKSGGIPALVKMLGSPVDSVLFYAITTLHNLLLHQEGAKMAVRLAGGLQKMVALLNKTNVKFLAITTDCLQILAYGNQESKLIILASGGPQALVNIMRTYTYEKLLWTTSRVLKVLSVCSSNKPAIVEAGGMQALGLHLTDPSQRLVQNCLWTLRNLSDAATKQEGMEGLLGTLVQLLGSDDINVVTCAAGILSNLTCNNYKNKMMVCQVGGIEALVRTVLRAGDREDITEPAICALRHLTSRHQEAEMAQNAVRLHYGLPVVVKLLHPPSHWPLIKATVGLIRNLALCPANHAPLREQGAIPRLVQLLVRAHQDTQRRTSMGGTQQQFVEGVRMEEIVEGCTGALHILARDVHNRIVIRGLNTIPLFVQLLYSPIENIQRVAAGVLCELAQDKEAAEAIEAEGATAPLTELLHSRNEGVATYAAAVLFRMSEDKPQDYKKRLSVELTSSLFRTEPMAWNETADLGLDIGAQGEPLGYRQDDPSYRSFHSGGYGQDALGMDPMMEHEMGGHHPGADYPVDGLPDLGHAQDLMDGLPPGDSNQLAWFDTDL
- PROTOCOL_DESCRIPTION: cell-based or functional assay
Starred links: 1 amine or outer side, 2 acyl side, 3 side chain; linkers in the order of their positions; H or OH if unused. Positions of bridges follow the written chain, without caps; N, C: chain ends. Non-standard residues stand in square brackets, D forms with d. Primed or numbered codes have the meaning given here. *: point of attachment. PyrS2″ = (S)-3-amino-1-((pent-4-en-1-yloxy)carbonyl)pyrrolidine-3-carboxylic acid (stapling residue), C=CCCCOC(=O)N1CC[C@@](N[*:1])(C(=O)[*:2])C1; B5(4) = 2,2-bis(4-pentenyl)glycine = 2-amino-2-(pent-4-en-1-yl)hept-6-enoic acid (stitching residue), C=CCCCC(CCCC=C)(N[*:1])C(=O)[*:2]; PyrS2 = (S)-3-amino-1-((pent-4-en-1-yloxy)carbonyl)pyrrolidine-3-carboxylic acid, C=CCCCOC(=O)N1CC[C@@](N[*:1])(C(=O)[*:2])C1; MorphAsn = (S)-2-amino-4-morpholino-4-oxobutanoic acid, O=C(C[C@H](N[*:1])C(=O)[*:2])N1CCOCC1; B6 = 2-amino-2-(hex-5-en-1-yl)oct-7-enoic acid, C=CCCCCC(CCCCC=C)(N[*:1])C(=O)[*:2]; 5hexenyl = N-terminal hex-5-enoic acid (acyl cap), C=CCCCC(=O)*; Phe(3-COOH) = N[C@@H](Cc1cccc(C(=O)O)c1)C(=O)O; Phe(2-CF3) = N[C@@H](Cc1ccccc1C(F)(F)F)C(=O)O; Bta = N[C@@H](Cc1csc2ccccc12)C(=O)O; αAllylPro = C=CC[C@@]1(C(=O)O)CCCN1; tBuAla = CC(C)(C)C[C@H](N)C(=O)O; Cha = N[C@@H](CC1CCCCC1)C(=O)O; AllylGly = C=CC[C@H](N)C(=O)O
Measured NanoBRET Abs IC50 (uM); Bcat-Halo / TCF4-Luc in HEK293 cells accompanies every entry in the list below.
QUANTITY_MEASURED: NanoBRET Abs IC50 (uM); Bcat-Halo / TCF4-Luc in HEK293 cells (µM)

BINDER	MEASUREMENT_QUALIFIER	EXPERIMENTAL_RESULT
Ac-[αAllylPro]N[Cha][B5(4)]DQK(mPEG4)AFL[PyrS2]F[Bta][MorphAsn]-NH2 (staple 1-4, 4-11) [I-2526]	>	20
Ac-[αAllylPro]N[Cha][B5(4)]DQKAFL[PyrS2]F[Bta][MorphAsn]-NH2 (staple 1-4, 4-11; not fully specified (residue 7); printed as Ac-PL3-Asn-Cha-B5-Asp-Gln-[Phc]Lys-Ala-Phe-Leu-PyrS2-Phe-BztA-MorphAsn-NH2) [I-2523]	>	20
Ac-[αAllylPro]N[Cha][B5(4)]DQK(Ac)AFL[PyrS2]F[Bta][MorphAsn]-NH2 (staple 1-4, 4-11) [I-2522]	>	20
Ac-[αAllylPro]D[tBuAla][B5(4)]DXAAFL[PyrS2][Phe(2-CF3)][Bta]S-NH2 (staple 1-4, 4-11; not fully specified (residue 6); printed as Ac-PL3-Asp-Npg-B5-Asp-[CH2CChCO2H]TriAzDap-Ala-Ala-Phe-Leu-PyrS2-2F3MeF-BztA-Ser-NH2) [I-2521]	=	5.6
5hexenyl-[αAllylPro]D[AllylGly][B5(4)]D[Phe(3-COOH)]AAFL[PyrS2″][Phe(2-CF3)][Bta]Q-NH2 (staple (positions not given here); not fully specified (bridges); printed as 5hexenyl-PL3-Asp-AllylGly-B5-Asp-3COOHF-Ala-Ala-Phe-Leu-PyrS2-2F3MeF-BztA-Gln-NH2; also: staple C=C reduced to CH2-CH2, staple partners not given here) [I-2529]	=	33.2
Ac-[αAllylPro]D[tBuAla][B6]D[Phe(3-COOH)]QAFL[PyrS2][Phe(2-CF3)][Bta]A-NH2 (staple 1-4, 4-11) [I-2517]	=	30
Ac-[αAllylPro]D[tBuAla][B6]D[Phe(3-COOH)]AAFL[PyrS2][Phe(2-CF3)][Bta]Q-NH2 (staple 1-4, 4-11) [I-2513]	>	20
